- Tested on: CAF#2 (primary prostate cancer-associated fibroblasts of iCAF-like type)
- TEST DESCRIPTION: drug sensitivity score (DSS2, normalised partial AUC of dose-response, 72 h CellTiter-Glo viability) (DSS (dimensionless)); higher = more sensitive (stronger growth inhibition / cytotoxicity); extreme values may be limits of the assay
Give drug sensitivity score for every item shown.
// return just the number, without any unit appended

In: Could you share which drug sensitivity score value was measured for CCN(CC)CCCC(C)Nc1ccnc2cc(Cl)ccc12 (centres undefined) [Chloroquine] (tested concentration range 10-100000 nM) ?
Out: 9.8

In: And C[C@H]1O[C@@H](O[C@H]2[C@@H](O)C[C@H](O[C@H]3[C@@H](O)C[C@H](O[C@H]4CC[C@@]5(C)[C@H](CC[C@@H]6[C@@H]5C[C@@H](O)[C@]5(C)[C@@H](C7=CC(=O)OC7)CC[C@]65O)C4)O[C@@H]3C)O[C@@H]2C)C[C@H](O)[C@@H]1O [Digoxin] (tested concentration range 0.1-1000 nM) ?
Out: 13.8

In: And CC(C)C[C@H](NC(=O)[C@@H](COC(C)(C)C)NC(=O)[C@H](Cc1ccc(O)cc1)NC(=O)[C@H](CO)NC(=O)[C@H](Cc1c[nH]c2ccccc12)NC(=O)[C@H](Cc1cnc[nH]1)NC(=O)[C@@H]1CCC(=O)N1)C(=O)N[C@@H](CCCNC(=N)N)C(=O)N1CCC[C@H]1C(=O)NNC(N)=O [Goserelin] (tested concentration range 1-10000 nM) ?
Out: 0

In: And CN1CCN(c2nc(C3=C(c4c[nH]c5ccccc45)C(=O)NC3=O)c3ccccc3n2)CC1 [Sotrastaurin] (tested concentration range 1-10000 nM) ?
Out: 2.2
